- Target System: human GCG receptor (human, UniProt P47871 26-477)
- Sequence (P47871 26-477): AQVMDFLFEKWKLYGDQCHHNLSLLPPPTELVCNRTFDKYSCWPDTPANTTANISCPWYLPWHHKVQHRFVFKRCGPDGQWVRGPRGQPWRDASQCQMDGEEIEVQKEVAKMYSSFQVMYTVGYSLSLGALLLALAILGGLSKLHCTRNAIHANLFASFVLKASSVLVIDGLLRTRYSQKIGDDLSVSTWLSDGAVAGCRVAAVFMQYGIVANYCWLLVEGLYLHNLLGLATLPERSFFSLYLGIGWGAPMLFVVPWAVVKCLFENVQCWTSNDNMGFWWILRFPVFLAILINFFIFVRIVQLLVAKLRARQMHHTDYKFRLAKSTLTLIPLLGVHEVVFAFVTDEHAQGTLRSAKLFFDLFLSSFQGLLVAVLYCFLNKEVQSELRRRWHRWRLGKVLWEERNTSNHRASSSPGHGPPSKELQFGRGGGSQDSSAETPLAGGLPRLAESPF
- Experimental Details: cell-based or functional assay
Bridges are numbered along the chain shown (N, C = ends). Where no end group is shown, it is not given here. [ ]: non-standard residue; d: D form. Aib = CC(C)(N)C(=O)O
Parameter Measured: In vitro activity compared with native peptide (%) vs. Glucagon
Reply with just the number (in %).

Field: example entries. Status: answers known.
Y[Aib]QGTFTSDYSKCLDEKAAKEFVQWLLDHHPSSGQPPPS (bridge 16-20) [Triple agonist of SEQ ID NO: 68]; 8.8
H[Aib]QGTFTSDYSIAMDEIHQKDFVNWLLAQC (bridge 16-20) [Triple agonist of SEQ ID NO: 55]; 0.7
H[Aib]QGTFTSDYSKYLDGQHAQCFVAWLLAGGGPSSGAPPPS [Triple agonist of SEQ ID NO: 39]; 0.53

Next up:
Consider the binder H[Aib]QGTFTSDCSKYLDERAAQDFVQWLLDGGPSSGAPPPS [Triple agonist of SEQ ID NO: 25] . State its measured In vitro activity compared with native peptide (%) vs. Glucagon.
0.1
